Target: T1, recombinant human ROR1-His (Sino Biological, 13968-H08H) (human, UniProt Q01973 30-406)
T1 construct: extracellular domain; Bought protein; also called ROR1-HIS protein; not shown: His tag
T1 sequence (Q01973 30-406): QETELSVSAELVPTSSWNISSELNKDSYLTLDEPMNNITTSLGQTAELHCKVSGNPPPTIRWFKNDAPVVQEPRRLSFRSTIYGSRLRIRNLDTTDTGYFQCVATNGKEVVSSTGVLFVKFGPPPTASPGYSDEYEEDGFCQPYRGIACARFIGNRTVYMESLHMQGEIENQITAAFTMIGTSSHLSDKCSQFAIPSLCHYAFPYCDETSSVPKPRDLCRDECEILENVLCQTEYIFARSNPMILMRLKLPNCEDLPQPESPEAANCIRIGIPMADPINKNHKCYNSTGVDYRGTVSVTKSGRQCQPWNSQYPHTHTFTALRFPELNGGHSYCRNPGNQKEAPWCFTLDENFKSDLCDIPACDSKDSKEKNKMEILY
Test: BLI (Octet), ROR1-His on Anti-Penta-His or AR2G biosensor, IgG 30 to 0.021 nM, 1:1 fit
pKd: −log10 of the molar value.

binder	pKd
anti-ROR1 IgG antibody A2F2 (antibody, V domains shown, Full IgG form (human IgG1 constant region, lambda light chain), expressed in CHO-S cells) VH: EVQLLESGGGLVQPGGSLRLSCAASGFTFSDYYMSWVRQAPGKGLEWVSSISPDGSNTYYADSVKGRFTISRDNSKNTLYLQMNSLRAEDTAVYYCAKNLRAFDYWGQGTLVTVSS VL: QSVLTQPPPASGTPGQRVTISCSGSSSNIGSNTVYWYQQLPGTAPKLLIYANSQRPSGVPDRFSGSKSGTSASLAISGLRSEDEADYYCGSWDYSLSGYVFGGGTKLTVLG	10.11
anti-ROR1 IgG antibody AB4 (antibody, V domains shown, Full IgG form (human IgG1 constant region, lambda light chain), expressed in CHO-S cells) VH: EVQLLESGGGLVQPGGSLRLSCAASGFTFSSYDMSWVRQAPGKGLEWVSWISPDSGSIYYADSVKGRFTISRDNSKNTLYLQMNSLRAEDTAVYYCARPTGRFDYWGQGTLVTVSS VL: QSVLTQPPSASGTPGQRVTISCSGSSSNIGNNNVNWYQQLPGTAPKLLIYYDNKRPSGVPDRFSGSKSGTSASLAISGLRSEDEADYYCGTWDASLSGYVFGGGTKLTVLG	10.19
anti-ROR1 IgG antibody CC9 (antibody, V domains shown, Full IgG form (human IgG1 constant region, lambda light chain), expressed in CHO-S cells) VH: EVQLLESGGGLVQPGGSLRLSCAASGFTFSSYDMSWVRQAPGKGLEWVSGISHGSGNKYYADSVKGRFTISRDNSKNTLYLQMNSLRAEDTAVYYCAKRLSLRRRPSYYSDNAMDVWGQGTLVTVSS VL: QSVLTQPPSASGTPGQRVTISCTGSSSNIGNNAVNWYQQLPGTAPKLLIYYDSNRPSGVPDRFSGSKSGTSASLAISGLRSEDEADYYCGAWDDSLSGYVFGGGTKLTVLG	9.12
anti-ROR1 IgG antibody D2B12 (antibody, V domains shown, Full IgG form (human IgG1 constant region, lambda light chain), expressed in CHO-S cells) VH: EVQLLESGGGLVQPGGSLRLSCAASGFTFSNYDMSWVRQAPGKGLEWVSSISPSSGSSIYYADSVKGRFTISRDNSKNTLYLQMNSLRAEDTAVYYCAKAPGWCQAPSCYYDNAMDVWGQGTLVTVSS VL: QSVLTQPPSASGTPGQRVTISCSGSSSNIGNNDVSWYQQLPGTAPKLLIYDDSQRPSGVPDRFSGSKSGTSASLAISGLRSEDEADYYCGAWDDSLSGYVFGGGTKLTVLG	9.10
